Test system: A53T a-syn oligomers
METHOD DESCRIPTION: Split-YFP PCA/FACS screen of A53T a-syn oligomers
Format: cell-based, human
Could you please report measured Reads GFP High for the items listed next?
One number for each entry.

Each of the following entries comes with a recorded value; kindly state Reads GFP High for each.
1. NNQYSFV [library 7-mer, oligomers screen]
2. IPIQLKA [PDpep1, initial screen hit peptide IPIQLKA]
3. VYLDILG [library 7-mer, oligomers screen]

Result:
1: 1; 2: 12; 3: 1

Each of the following entries comes with a recorded value; kindly state Reads GFP High for each.
1. LKRDQPV [library 7-mer, oligomers screen]
2. MQMKLSQ [library 7-mer, oligomers screen]

Result:
1. 3
2. 1

Each of the following entries comes with a recorded value; kindly state Reads GFP High for each.
1. CFLFQIQ [library 7-mer, oligomers screen]
2. WPRYPHI [library 7-mer, oligomers screen]
3. LPSKIYK [library 7-mer, oligomers screen]
4. ECHTKIR [library 7-mer, oligomers screen]
5. TQKRELT [library 7-mer, oligomers screen]

Result:
[1, 1, 1, 1, 1]
